# Tgt: Gonadotropin-releasing hormone receptor (Rattus norvegicus)
# Sequence (P30969 whole entry): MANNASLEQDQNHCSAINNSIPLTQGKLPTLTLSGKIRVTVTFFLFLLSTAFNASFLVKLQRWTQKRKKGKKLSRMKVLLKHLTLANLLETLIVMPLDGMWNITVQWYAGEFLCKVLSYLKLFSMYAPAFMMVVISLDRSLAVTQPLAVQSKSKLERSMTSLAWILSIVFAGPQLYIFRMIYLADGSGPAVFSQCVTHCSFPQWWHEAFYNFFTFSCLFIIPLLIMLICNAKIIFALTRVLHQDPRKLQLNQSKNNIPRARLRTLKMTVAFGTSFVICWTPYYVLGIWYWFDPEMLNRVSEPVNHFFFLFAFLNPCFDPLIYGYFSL
# Assay name: Inhibition of GnRH-stimulated luteinizing hormone (LH) release in rat pituitary cells
# Type: functional, cell-based, Pituitary gland cell
Threshold 500 nM: IC50 strictly smaller gives True, otherwise False.

Does Cc1cc(C)cc(-c2[nH]c3ccc(C(C)(C)C(=O)N4CCOCC4)cc3c2CCNCCCCc2ccncc2)c1 have IC50 strictly under 500 nM?
False

Answer whether the compound COCCN(CCOC)C(=O)c1ccc2[nH]c(-c3cc(C)cc(C)c3)c(CCNCCCCc3cccnc3)c2c1 has IC50 strictly less than 500 nM
False

IC50 strictly < 500 nM for this compound? Cc1cc(C)cc(-c2[nH]c3ccc(C(C)(C)C(=O)N4C(C)CCC4C)cc3c2CCNCCCCc2ccncc2)c1 (stereo not given)
True

I'd appreciate it if you could check whether CCN(C(=O)c1ccc2[nH]c(-c3cc(C)cc(C)c3)c(CCNCCCCc3cccnc3)c2c1)C1CCCCC1 has IC50 smaller than 500 nM.
True

Record Cc1cc(C)cc(-c2[nH]c3ccc(C(=O)N4C(C)CCC4C)cc3c2CCNCCCCc2cccnc2)c1 (stereo not given) : is its IC50 strictly below 500 nM?
True

* * *

Quick note: these are IC50 numbers for system: UniProt P30968
// return the numeric value with its unit appended

Answered cases to consult:
[
  {
    "Item smiles": "CCN(CC)C(=O)C(C)(C)c1ccc2[nH]c(-c3cc(C)cc(C)c3)c(CCNCCCCc3ccncc3)c2c1",
    "Parameter": "IC50",
    "Result": "3.2 nM"
  },
  {
    "Item smiles": "CCN(CC)C(=O)C(C)(C)c1ccc2[nH]c(-c3cc(C)cc(C)c3)c(CCNCCCCc3cccnc3)c2c1",
    "Parameter": "IC50",
    "Result": "3.3 nM"
  },
  {
    "Item smiles": "Cc1cc(C)cc(-c2[nH]c3ccc(C(C)(C)C(=O)N4CCCCC4)cc3c2CCNCCCCc2ccncc2)c1",
    "Parameter": "IC50",
    "Result": "1.8 nM"
  }
]

I would be grateful if you could provide IC50 for each of the following entries.
1. Cc1cc(C)cc(-c2[nH]c3ccc(C(C)(C)C(=O)N4CCCC4)cc3c2CCNCCCCc2ccncc2)c1
2. Cc1cc(C)cc(-c2[nH]c3ccc(C(C)(C)C(=O)N4C5CCC4CC5)cc3c2CCNCCCCc2cccnc2)c1
3. Cc1cc(C)cc(-c2[nH]c3ccc(C(C)(C)C(=O)N4CC(C)(C)C4)cc3c2CCNCCCCc2cccnc2)c1

4.8 nM
1.4 nM
1 nM

* * *

# Tgt: Gonadotropin-releasing hormone receptor (Homo sapiens)
# Sequence (P30968 whole entry): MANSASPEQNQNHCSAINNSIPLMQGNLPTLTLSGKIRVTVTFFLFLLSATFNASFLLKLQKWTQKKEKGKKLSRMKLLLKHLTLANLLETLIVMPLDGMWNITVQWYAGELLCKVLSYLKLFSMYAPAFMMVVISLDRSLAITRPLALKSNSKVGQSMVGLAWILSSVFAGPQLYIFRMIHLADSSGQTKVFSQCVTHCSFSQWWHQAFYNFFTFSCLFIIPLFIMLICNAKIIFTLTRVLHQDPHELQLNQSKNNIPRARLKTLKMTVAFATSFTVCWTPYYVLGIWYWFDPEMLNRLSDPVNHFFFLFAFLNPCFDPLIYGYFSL
# Assay name: Inhibition of GnRH-stimulated phosphatidylinositol (PI) hydrolysis in cloned chinese hamster ovary (CHO) cells expressing human GnRH receptor.
# Format: functional, cell-based
Parameter: pIC50
Give bare numbers, as −log10 of the molar value.

Examples with their reported pIC50 follow.
[
  {
    "Molecule": "CCN(CCO)C(=O)c1ccc2[nH]c(-c3cc(C)cc(C)c3)c(CCNCCCCc3ccncc3)c2c1",
    "Numeric result": 6.59
  },
  {
    "Molecule": "Cc1cc(C)cc(-c2[nH]c3ccc(C(C)(C)C(=O)N4CCCCC4)cc3c2CCNCCCCc2ccncc2)c1",
    "Numeric result": 7.42
  }
]

Dear colleague, could you send me pIC50 for each of the items below? Thanks.
1. Cc1cc(C)cc(-c2[nH]c3ccc(C(C)(C)C(=O)N4CCOCC4)cc3c2CCNCCCCc2ccncc2)c1
2. Cc1cc(C)cc(-c2[nH]c3ccc(C(C)(C)C(=O)N4CC(C)(C)C4)cc3c2CCNCCCCc2cccnc2)c1

[7.23, 7.21]

Batch lookup, pIC50 per entry.
1. Cc1cc(C)cc(-c2[nH]c3ccc(C(=O)N(CC(C)C)CC(C)C)cc3c2CCNCCCCc2ccncc2)c1
2. CCN(C(=O)c1ccc2[nH]c(-c3cc(C)cc(C)c3)c(CCNCCCCc3cccnc3)c2c1)C(C)C
3. CCN(C(=O)c1ccc2[nH]c(-c3cc(C)cc(C)c3)c(CCNCCCCc3cccnc3)c2c1)C1CCCCC1
4. Cc1cc(C)cc(-c2[nH]c3ccc(C(C)(C)C(=O)N4C5CCC4CC5)cc3c2CCNCCCCc2cccnc2)c1
5. Cc1cc(C)cc(-c2[nH]c3ccc(C(C)(C)C(=O)N(CC(C)C)CC(C)C)cc3c2CCNCCCCc2cccnc2)c1
6. CCN(CC)C(=O)c1ccc2[nH]c(-c3cc(C)cc(C)c3)c(CCN(C)CCCCc3ccncc3)c2c1
7. CCC(C)(C(=O)N1C2CCC1CC2)c1ccc2[nH]c(-c3cc(C)cc(C)c3)c(CCNCCCCc3ccncc3)c2c1 (stereo not drawn)

1. 7.10
2. 6.96
3. 7.80
4. 7.85
5. 7.66
6. 7.24
7. 7.42

Give pIC50 for all molecules that follow.
1. Cc1cc(C)cc(-c2[nH]c3ccc(C(C)(C)C(=O)N4CCCC4)cc3c2CCNCCCCc2cccnc2)c1
2. Cc1cc(C)cc(-c2[nH]c3ccc(C(C)(C)C(=O)N4C5CCC4CC5)cc3c2CCN(CCCCc2ccncc2)C(C)C)c1
3. CCN(CC)C(=O)C(C)(C)c1ccc2[nH]c(-c3cc(C)cc(C)c3)c(CCNCCCCc3cccnc3)c2c1

1: 7.21; 2: 6.70; 3: 7.03

Provide the reported pIC50 of each entry below, same order.
1. CCN(CC)C(=O)c1ccc2[nH]c(-c3cc(C)cc(C)c3)c(CCNCCCCc3cccnc3)c2c1
2. CCN(C(=O)C(C)(C)c1ccc2[nH]c(-c3cc(C)cc(C)c3)c(CCNCCCCc3ccncc3)c2c1)C1CCCCC1

1: 6.72; 2: 7.27

// batch mode: one pIC50 value per listed entry
1. Cc1cc(C)cc(-c2[nH]c3ccc(C(C)(C)C(=O)N4C5CCC4CC5)cc3c2CCN(C)CCCCc2ccncc2)c1
2. CCN(C(=O)c1ccc2[nH]c(-c3cc(C)cc(C)c3)c(CCNCCCCc3ccncc3)c2c1)C1CCCCCCC1

1: 6.96; 2: 7.82
